# Assay Info: yeast display, Sf9 membrane polyspecificity reagent, FACS + sequencing; frameworks hold sequencing errors
Measured Quantity: polyreactivity (PSR sort gate)

Record excerpt, results attached:
QVQHGESGGGLVQAGGSLRLSCAASGRIFYYYAMGWYRQAPGKERELVAAITWNAGITYYADSVKGRFTISRDNAKNTVYLQMNSLKPEDSAVYYCAASRWARGRDYWGQGTQVTVSS : high polyreactivity
QVQLVESGGGLVQAGGSLRLSCAASGRIFWVNVMGWSRQAPGKERELVAAITRGASTYADSVKGRFTISRDNAKNTVYLQMNSLKPEDTAVYYCAADTKRRSIRYDYWGQGTQVTVSS : high polyreactivity
QVQLVESGGGLVQAGGSLRLSCAASGLIFGWYAMGWYRQAPGKERELVAGISGSGGITYYADSVKGRFTISRDNAKNTVYLQMNSLKPEDTAVYYCAARPGYVHIDFDYWGQGTQVTVSS : low polyreactivity
QVQLVESGGGLVQAGGSLRLSCAASGYNFDHYAMGWYRQAPGKERELVAAISRSAGSTYYADSVKGRFTISRDNAKNTVYLQMTSLKTEDTAVYYCNTVFRWIDRVLGYEYWGQGTQVTVSS : high polyreactivity
QVQLVESGGGLVQPGGSLRLTCAASGGIFVTYTMGWYRQAPGKDRELVAGINSRSGSTYADSVKGGFTISRDNAKNTVYLQRTSLKLEDTAVYYCAADRIDLGRASRYGYWGQGTQVTVSS : low polyreactivity

Quick batch: polyreactivity (PSR sort gate) for everything below.
1. QVQLVESGGGLVQAGGILRLSCAASGSIFDVYAMGWYRQAPGKERELVAAINRGGSTNYADSVKGRFTISRDNAKNTVYLQMNCLKPEDTAVYYCAADIVWYVYNGYYWIFDYWGQGTQVTVSS
2. QVQLVESGGGLVQAGGRLRLSCAASGFTFTRYAMGWYRQAPGKERELVAAISWSGGSTYYADSVKGRFTISRDNAKNTVYLQMNSLKPEDTAVYYCAKRGTVRQGGYGYWGQGTQVTVSS
3. QVQLVESGGGLVQAGGSLRLRGAASGSIFSSNAKGWCRPAPGKERELVAAICRSGGDTYYADSVKGRFTISRDNAKNTVYLQMNSLKPVDTAVYYCAARNSYGGPTYEHYYWGQGTQVSVSS
4. QVQLLESGGGLVQAGGSLRLSCAASGSTFDSYEMGWYRQAPGKERELVAGISYSSDRTYYADSVKGRFTISRDNAKNTVYLQMNSLKPEDTAVYYCAKDHTGTVQYPLDYWGQGTQVTVSS
5. QVQLVESGGGLVQAGGSLRLSCAASGSIFSYYTMGWYRQAPGKERELVAAISFRGTSTYYADSVKGRFTISRDNAKNTVYLQMNSLKPEDTAVYYCAKRALYYPTYPKYDTYNRYYWGQGTQVTVSS
6. QVQLVESGGGLVQAGGSLRLSCAASGFTFGRYAMGWYRQAPGKERELVAAITWSGGSTYYADSVKGRFTISRDNAKNTVYLQMNSLKPEDTAVYYCNRLSNNREYDYWGQGTQVTVSS
7. QVQLVESGGGLVQAGGSLRLSCAASGRIFSTYALGWYRQAPGKERELVAAISYSGASTYYADSVKGRFTISRDNAKNTVYLQIKSMKPEDTAVYYCAKATYPHEYDYWGQGTQVTVSS
8. QVHLVESGGGLVQAGGSLRLSCAASGSICNPYAMGWYRQAPGKEGELVAAINRGGTSTYYADSVKGRFTISRDNAKNNVYLQMNSLKPEDTAVYYCNADYPYYEDGDTVRDDYWGQGTQVTVSS

1. high polyreactivity
2. high polyreactivity
3. high polyreactivity
4. low polyreactivity
5. high polyreactivity
6. high polyreactivity
7. low polyreactivity
8. low polyreactivity

Origin of the recorded values: the nanobody polyreactivity screen of Harvey et al. (2022)
